A compilation of published Ki results with Alpha-2C adrenergic receptor (Homo sapiens, UniProt P18825).
Sequence (P18825 whole entry): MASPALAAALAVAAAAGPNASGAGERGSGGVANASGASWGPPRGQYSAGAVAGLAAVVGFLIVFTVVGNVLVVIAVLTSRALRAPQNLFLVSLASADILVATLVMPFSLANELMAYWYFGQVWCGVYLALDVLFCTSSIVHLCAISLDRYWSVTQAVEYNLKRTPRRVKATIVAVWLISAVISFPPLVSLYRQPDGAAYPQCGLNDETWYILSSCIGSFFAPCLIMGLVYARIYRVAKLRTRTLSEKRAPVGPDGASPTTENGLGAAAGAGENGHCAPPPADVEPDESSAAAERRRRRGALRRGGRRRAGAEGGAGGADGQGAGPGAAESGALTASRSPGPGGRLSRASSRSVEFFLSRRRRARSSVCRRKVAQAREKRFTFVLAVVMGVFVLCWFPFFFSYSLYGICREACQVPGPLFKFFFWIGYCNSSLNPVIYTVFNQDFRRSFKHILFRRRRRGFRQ
Value type: Ki (µM)

Sample answers from the record:
c1ccc2c(c1)CC(CN1CCN(c3ccc4c(c3)OCCO4)CC1)C2 = 0.336
C[C@H]1c2ccccc2[C@H]2C[C@]21c1cnc[nH]1 (relative stereo) = 0.000537
COc1ccccc1N1CCN(CCn2c(=O)[nH]c3scc(-c4cccc(C)c4)c3c2=O)CC1 = 0.082

(A) CC(Oc1ccccc1-c1ccccc1)C1=NCCO1 (stereo not given)
(B) CC(=O)C1=C(C)NC(C)=C(C(=O)NCCCN2CCC(c3ccccc3)(c3ccccc3)CC2)C1c1ccc2c(c1)OCO2 (stereo not given)
In: For the two items A and B , which reports the higher Ki value? Pick one; state its label.
Out: A

(A) COc1cc2c(cc1OC)C1=NO[C@@H](CN3CCN(C/C(C)=C/c4cccc(F)c4)CC3)[C@@H]1CO2
(B) CC1=C(C(=O)NCCCN2CCC(c3ccc(F)cc3)CC2)[C@@H](c2ccc(F)c(F)c2)CC(=O)N1
In: Given the listed records, identify the one among A and B with higher Ki. Write down the label attached to your selection.
Out: B

(I) CN(C)C[C@H]1CC2c3ccccc3Sc3ccc(F)cc3[C@H]2O1 (stereo in doubt; 8d)
(II) COc1ccc(SC)c(NCC2=NCCN2)c1
In: // returns I or II , whichever has the lower Ki Pick one; state its label.
Out: I
(I: 0.059 µM, II: 0.603 µM)
